assay: NCI Yeast Anticancer Drug Screen. Data for the bub3 strain (AID 167); conditions: S. cerevisiae bub3 mutant strain, at 50.0 µM
About 79,000 compounds went through this panel and 15% of them were active in at least one assay; those are over-represented in the sample as a whole. Activity calls are given as the source filed them. Rule as the data show it: active = growth inhibition above about 70%; inactive = the rest.
Response enum: active, inactive

Q: What call does the record list for CCOC(=O)C(C=O)(C=O)c1ccccc1 ?
Ans: inactive

Q: What call does the record list for O=C1C=CCCCC1(c1ccccc1)c1ccccc1 ?
Ans: inactive

Q: What call does the record list for CC(C)C(C)(C(=O)O)C(C)C ?
Ans: inactive

Q: What call does the record list for CCOC(=O)c1cccc(C)c1C(=O)c1ccc(C)cc1C ?
Ans: active

Q: What call does the record list for CCCCCc1cc(Cl)cc(Cl)c1O ?
Ans: inactive

Q: What call does the record list for C\C=C/C=C/C=C/C(=O)O ?
Ans: active

Q: What call does the record list for O=C(OC1C2CCC2C2CC21)c1cc([N+](=O)[O-])cc([N+](=O)[O-])c1 (centres undefined) ?
Ans: inactive

Q: What call does the record list for O=C1OC(=O)C2C1C1C(c3ccccc3)=C(c3ccccc3)C2(O)C2C(=O)OC(=O)C12 (centres undefined) ?
Ans: active

Q: What call does the record list for C=C1CC(O)C2C(C[Se]c3ccccc3)C(=O)O[C@@H]2C2C(=C)[C@@H](O)CC12 (some centres undefined) ?
Ans: inactive

Q: What call does the record list for CCC(CC)N(CCNc1cc(OC)cc2cccnc12)CC(C)C ?
Ans: inactive

Q: What call does the record list for CCOC(=O)C(NC(C)=O)[CH](c1ccc(OC)cc1)[Sn]([c]1ccccc1)([c]1ccccc1)[c]1ccccc1 (centres undefined) ?
Ans: inactive

Q: What call does the record list for COc1ccc(C(=O)Nc2ccccc2OC)cc1 ?
Ans: inactive

Q: What call does the record list for OCC1(c2ccccc2)OC1c1ccccc1 (centres undefined) ?
Ans: active

Q: What call does the record list for O=C1c2ccccc2SCC12OC2c1ccc(Cl)cc1 (centres undefined) ?
Ans: active

Q: What call does the record list for NCCC1=CCCCC1 ?
Ans: inactive

Q: What call does the record list for OC1CC2OC2C1O (centres undefined) ?
Ans: inactive

Q: What call does the record list for CCC(CC)C1(C(=O)OCCN(CC)CC)CCCCC1 ?
Ans: active

Q: What call does the record list for [Pt].c1ccc(P(CCP(CCP(c2ccccc2)c2ccccc2)CCP(c2ccccc2)c2ccccc2)c2ccccc2)cc1 ?
Ans: active

Q: What call does the record list for O=Cc1cc([N+](=O)[O-])ccc1O ?
Ans: active

Q: What call does the record list for C/C(=N\N=C(N)N)c1ccc2c(c1)Cc1cc(/C(C)=N/N=C(N)N)ccc1-2 ?
Ans: active

Q: What call does the record list for Cc1ccccc1Sc1ncnc2ccccc12 ?
Ans: inactive

Q: What call does the record list for CC(C)(C)[Si](C)(C)O/N=C\c1cccc(O[Si](C)(C)C(C)(C)C)c1 ?
Ans: inactive

Q: What call does the record list for CN1CC[N+](C)(Cc2ccc(C[N+]3(C)CC[N+](C)(Cc4ccc(CCl)cc4)CC3)cc2)CC1 (centres undefined) ?
Ans: active

Q: What call does the record list for Cc1cc(C(=O)CBr)c(CN2C(=O)c3ccccc3C2=O)c(=O)n1C ?
Ans: inactive
